Hi there, I'd appreciate the recorded LD50 for every entry that follows.
# System: dd-strain male mice
# assay info: Toxicity test (LD50, intraperitoneal, mice)
# Assay type: in vivo, mouse
# recorded conditions: 18 to 21 g, 3 weeks observation, Probit analysis, 30240 min
Numbers only, in mg/kg.

Look over these answered cases.
{"molecule": "Cc1ccc2c(c1O)NC(S(=O)O)C1CC(/C=C/C(N)=O)=CN1C2=O (stereo not drawn) [R1=H, R2=H, R3=SO2 Na]", "LD50 (mg/kg)": 2.28}
{"molecule": "CC(=O)N1c2c(ccc(C)c2O)C(=O)N2C=C(/C=C/C(N)=O)CC2C1S(=O)(=O)O (stereo not drawn)", "LD50 (mg/kg)": 2.43}
{"molecule": "Cc1ccc2c(c1O)NC(S(=O)O)C1CC(/C=C/C(N)=O)=CN1C2=O (stereo not drawn) [R1=H, R2=H, R3=SO2 K]", "LD50 (mg/kg)": 2.31}

Each molecule below has a recorded value; state its LD50.
1. CC(=O)Oc1c(C)ccc2c1N(C(C)=O)C(S(=O)(=O)O)C1CC(/C=C/C(N)=O)=CN1C2=O (stereo not drawn)
2. CC(=O)Oc1c(C)ccc2c1N(C(C)=O)C(S(=O)O)C1CC(/C=C/C(N)=O)=CN1C2=O (stereo not drawn)
3. Cc1ccc2c(c1O)NC(S(=O)(=O)O)C1CC(/C=C/C(N)=O)=CN1C2=O (stereo not drawn)

Given back:
1. 2.81
2. 2.62
3. 2.31
